# target: Cholinesterase (Equus caballus, UniProt P81908)
# Sequence (P81908 whole entry): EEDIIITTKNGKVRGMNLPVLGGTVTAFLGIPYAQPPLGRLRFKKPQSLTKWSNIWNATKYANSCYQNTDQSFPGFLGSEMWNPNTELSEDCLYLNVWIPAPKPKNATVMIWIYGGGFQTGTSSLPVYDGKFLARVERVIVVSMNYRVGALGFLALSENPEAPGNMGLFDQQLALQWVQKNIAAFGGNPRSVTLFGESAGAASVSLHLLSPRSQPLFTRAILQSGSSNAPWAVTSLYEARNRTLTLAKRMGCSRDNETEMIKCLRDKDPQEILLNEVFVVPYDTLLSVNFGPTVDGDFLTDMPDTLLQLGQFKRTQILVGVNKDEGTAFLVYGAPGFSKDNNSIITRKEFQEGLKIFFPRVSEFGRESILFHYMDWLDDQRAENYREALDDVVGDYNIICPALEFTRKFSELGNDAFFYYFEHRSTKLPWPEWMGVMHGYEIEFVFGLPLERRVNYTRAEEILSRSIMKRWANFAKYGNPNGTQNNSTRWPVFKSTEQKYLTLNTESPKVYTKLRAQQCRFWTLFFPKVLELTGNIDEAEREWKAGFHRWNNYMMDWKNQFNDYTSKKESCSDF
# protocol-summary: Inhibition of equine serum BuChE using BTCI as substrate preincubated for 30 mins followed by substrate addition measured after 30 mins by Ellman assay
Reported pIC50 is given for each of the following compounds.
Conceptually, pIC50 converts a concentration in mol/L into minus its log10.

>  <smiles-string>
COc1ccc(-c2nc(NC(=O)C3CCN(Cc4c(F)cccc4Cl)CC3)sc2-c2ccc(OC)cc2)cc1

>  <pIC50>
5.80

$$$$

[Q] Which pIC50 value belongs to Fc1ccc(CN2CCC(Nc3nc(-c4ccc(Cl)cc4)c(-c4ccc(Cl)cc4)s3)CC2)c(Cl)c1 ?
[A] 5.71

[Q] Return reported pIC50; argument: Cc1ccc(-c2nc(NC(=O)C3CCN(Cc4cccc(F)c4)CC3)sc2-c2ccc(C)cc2)cc1
[A] 5.71

[Q] Look at this compound and give its reported pIC50. Clc1ccc(-c2nc(NC3CCN(Cc4ccccc4)CC3)sc2-c2ccc(Cl)cc2)cc1
[A] 5.48

###

Listing: inhibition of selected compounds
# target: Acetylcholinesterase (Homo sapiens)
# Sequence (P22303 whole entry): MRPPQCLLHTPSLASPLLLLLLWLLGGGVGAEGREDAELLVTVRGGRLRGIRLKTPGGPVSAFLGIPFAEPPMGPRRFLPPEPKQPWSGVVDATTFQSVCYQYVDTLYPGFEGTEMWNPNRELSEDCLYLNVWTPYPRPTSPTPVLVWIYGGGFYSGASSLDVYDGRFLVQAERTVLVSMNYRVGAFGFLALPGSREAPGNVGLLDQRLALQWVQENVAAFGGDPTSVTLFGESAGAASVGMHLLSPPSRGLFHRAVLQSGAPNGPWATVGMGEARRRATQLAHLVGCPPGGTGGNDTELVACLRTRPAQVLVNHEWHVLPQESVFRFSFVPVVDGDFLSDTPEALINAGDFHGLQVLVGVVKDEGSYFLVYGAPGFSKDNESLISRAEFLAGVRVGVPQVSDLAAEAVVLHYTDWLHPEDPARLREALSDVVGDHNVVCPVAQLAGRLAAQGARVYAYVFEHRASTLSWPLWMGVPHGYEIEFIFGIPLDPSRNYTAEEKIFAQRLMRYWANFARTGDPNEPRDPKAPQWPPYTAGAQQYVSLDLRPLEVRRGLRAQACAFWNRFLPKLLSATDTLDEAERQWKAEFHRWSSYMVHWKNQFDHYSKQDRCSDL
# condition-description: at 10 µM
# Description: Inhibition of human erythrocyte AChE-induced Abeta (1 to 42) aggregation at 10 uM incubated for 24 hrs by thioflavin-T fluorescence assay
Answer format: numeric, % implied, no suffix.

The examples below pair each entry with its known result.
>  <smiles-string>
Cc1ccc(-c2nc(NCC3CCN(Cc4cc(F)cc(F)c4)CC3)sc2-c2ccc(C)cc2)cc1

>  <observed-property>
inhibition

>  <assay-value>
27.6

$$$$
>  <smiles-string>
COc1ccc(-c2nc(NCC3CCN(Cc4ccccc4C(F)(F)F)CC3)sc2-c2ccc(OC)cc2)cc1

>  <observed-property>
inhibition

>  <assay-value>
20.6

$$$$

--- query ---
[Q] Value lookup for inhibition; key = Fc1ccc(CN2CCC(Nc3nc(-c4ccc(Cl)cc4)c(-c4ccc(Cl)cc4)s3)CC2)c(Cl)c1
[A] 27.5

###

pIC50: −log10 of the molar value.
A set of compounds tested on UniProtKB P22303, with measured pIC50:

Some compounds with known pIC50 results, for comparison:
>  <smiles-string>
Cc1ccc(-c2nc(NC(=O)C3CCN(Cc4ccc(F)cc4Cl)CC3)sc2-c2ccc(C)cc2)cc1

>  <assay-value>
< 5.00

$$$$
>  <smiles-string>
Cc1ccc(-c2nc(NC(=O)C3CCN(Cc4cccc(F)c4)CC3)sc2-c2ccc(C)cc2)cc1

>  <assay-value>
< 5.00

$$$$

Alright, here's another compound for you.
[Q] Return pIC50 measured with UniProtKB P22303 given this compound: Cc1ccc(-c2nc(NC(=O)C3CCN(Cc4ccccc4C)CC3)sc2-c2ccc(C)cc2)cc1
[A] < 5.00

###

# target: UniProtKB P81908
# protocol-summary: Inhibition of equine serum BuChE using BTCI as substrate preincubated for 30 mins followed by substrate addition measured after 30 mins by Ellman assay
observed-property: IC50 (nM)
Give the number; nM is assumed, so skip it.

Past entries and their recorded results:
>  <smiles-string>
COc1ccc(-c2nc(NCC3CCN(Cc4ccccc4C)CC3)sc2-c2ccc(OC)cc2)cc1

>  <target>
UniProtKB P81908

>  <observed-property>
IC50

>  <assay-value>
2210

$$$$
>  <smiles-string>
Cc1ccc(-c2nc(NC(=O)C3CCN(Cc4ccccc4C(F)(F)F)CC3)sc2-c2ccc(C)cc2)cc1

>  <target>
UniProtKB P81908

>  <observed-property>
IC50

>  <assay-value>
1880

$$$$
>  <smiles-string>
Fc1ccc(CN2CCC(CNc3nc(-c4ccc(Cl)cc4)c(-c4ccc(Cl)cc4)s3)CC2)c(Cl)c1

>  <target>
UniProtKB P81908

>  <observed-property>
IC50

>  <assay-value>
740

$$$$
>  <smiles-string>
Cc1ccc(-c2nc(NCC3CCN(Cc4ccccc4C)CC3)sc2-c2ccc(C)cc2)cc1

>  <target>
UniProtKB P81908

>  <observed-property>
IC50

>  <assay-value>
2510

$$$$
>  <smiles-string>
COc1ccc(-c2nc(NC(=O)C3CCN(Cc4ccc(F)cc4)CC3)sc2-c2ccc(OC)cc2)cc1

>  <target>
UniProtKB P81908

>  <observed-property>
IC50

>  <assay-value>
1730

$$$$
>  <smiles-string>
Fc1ccc(CN2CCC(CNc3nc(-c4ccc(Cl)cc4)c(-c4ccc(Cl)cc4)s3)CC2)c(C(F)(F)F)c1

>  <target>
UniProtKB P81908

>  <observed-property>
IC50

>  <assay-value>
3300

$$$$
>  <smiles-string>
O=C(Nc1nc(-c2ccc(Cl)cc2)c(-c2ccc(Cl)cc2)s1)C1CCN(Cc2ccc(OC(F)(F)F)cc2)CC1

>  <target>
UniProtKB P81908

>  <observed-property>
IC50

>  <assay-value>
2180

$$$$
>  <smiles-string>
COc1ccc(-c2nc(NC3CCN(Cc4ccc(C(F)(F)F)cc4)CC3)sc2-c2ccc(OC)cc2)cc1

>  <target>
UniProtKB P81908

>  <observed-property>
IC50

>  <assay-value>
1680

$$$$

[Q] I have this compound here, Cc1ccc(-c2nc(NCC3CCN(Cc4ccccc4C(F)(F)F)CC3)sc2-c2ccc(C)cc2)cc1 , and I need its recorded IC50.
[A] 2200

[Q] Please give the measured IC50 for this compound: N#Cc1ccccc1CN1CCC(C(=O)Nc2nc(-c3ccc(Cl)cc3)c(-c3ccc(Cl)cc3)s2)CC1
[A] 1590

[Q] Look up IC50 for this compound: Cc1ccc(-c2nc(NC(=O)C3CCN(Cc4c(F)cccc4Cl)CC3)sc2-c2ccc(C)cc2)cc1
[A] 2770

[Q] // returns reported IC50 for input Cc1ccc(-c2nc(NC(=O)C3CCN(Cc4ccc(C#N)cc4)CC3)sc2-c2ccc(C)cc2)cc1
[A] 5320

[Q] // IC50 lookup, key: O=C(Nc1nc(-c2ccc(Cl)cc2)c(-c2ccc(Cl)cc2)s1)C1CCN(Cc2cc(F)cc(F)c2)CC1
[A] 3030
